Quick list: DC50 per entry.
# Target entity: BRAF V600E (Homo sapiens, UniProt P15056, V600E)
# Construct: endogenous C-terminal HiBiT fusion tag on BRAF V600E allele; endogenous in cells; host or cells: A375 clone 1F10 (CRISPR-Cas9 knock-in of the HiBiT tag; parental A375 from ATCC)
# Sequence (P15056 whole entry V600E, the tested form may be a part): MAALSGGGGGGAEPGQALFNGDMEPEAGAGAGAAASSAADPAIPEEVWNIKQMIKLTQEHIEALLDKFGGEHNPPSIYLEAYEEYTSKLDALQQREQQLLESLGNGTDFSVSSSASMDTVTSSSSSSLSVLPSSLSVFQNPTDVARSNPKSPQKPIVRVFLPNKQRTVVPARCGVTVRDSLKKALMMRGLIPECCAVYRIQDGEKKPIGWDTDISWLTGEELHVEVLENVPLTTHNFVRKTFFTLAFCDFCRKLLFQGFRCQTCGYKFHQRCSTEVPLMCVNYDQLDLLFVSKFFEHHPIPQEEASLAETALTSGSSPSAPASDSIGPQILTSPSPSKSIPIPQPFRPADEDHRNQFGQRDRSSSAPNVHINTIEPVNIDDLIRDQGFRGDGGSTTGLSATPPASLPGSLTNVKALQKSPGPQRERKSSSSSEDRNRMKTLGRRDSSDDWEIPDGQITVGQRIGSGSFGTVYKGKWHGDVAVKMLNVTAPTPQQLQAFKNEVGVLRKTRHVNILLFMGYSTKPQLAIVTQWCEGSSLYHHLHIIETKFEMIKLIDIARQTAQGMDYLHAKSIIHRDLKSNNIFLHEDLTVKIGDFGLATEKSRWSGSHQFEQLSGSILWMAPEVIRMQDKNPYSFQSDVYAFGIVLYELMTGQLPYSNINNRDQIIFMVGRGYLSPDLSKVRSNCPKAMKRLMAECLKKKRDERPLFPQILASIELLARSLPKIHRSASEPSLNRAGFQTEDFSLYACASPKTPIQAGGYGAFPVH
# Test method notes: BRAF HiBiT degradation assay, C-terminal HiBiT-tagged BRAF V600E A375 cells (clone 1F10), Nano-Glo HiBiT Lytic assay
# Assay type: cell-based
# Assay context: A375 (BRAF V600E); DC50 at 50%: fitted conc. at Y=50

Here is how some molecules turned out for DC50.
# DC50 of CCCS(=O)(=O)Nc1cccc(-c2nc(C(C)(C)C)sc2-c2ccnc(Nc3ccc(C4CCN(C[C@H]5CC[C@H](Oc6ccc(C7CCC(=O)NC7=O)cn6)CC5)CC4)cc3)n2)c1F (mixture of isomers) [Compound 168] = 10 to 50 nM

# DC50 of CCCS(=O)(=O)Nc1cccc(-c2nc(C3CCN(CC4CCN(C(=O)CN5CCc6cc(C7CCC(=O)NC7=O)ccc6C5)CC4)CC3)sc2-c2ccnc(N)n2)c1F (racemic) [Compound 226] = 50 to 500 nM

# DC50 of CCCS(=O)(=O)Nc1cccc(-c2nc(C3CCN(C(=O)C4CCN(CC5CCN(c6ccc(C7CCC(=O)NC7=O)cn6)CC5)CC4)CC3)sc2-c2ccnc(NC)n2)c1F (racemic) [Compound 217] = 10 to 50 nM

# DC50 of CCCS(=O)(=O)Nc1cccc(-c2nc(C(C)(C)C)sc2-c2ccnc(Nc3cccc(C4CCN(C(=O)CN5CCc6cc(C7CCC(=O)NC7=O)ccc6C5)CC4)c3)n2)c1F (racemic) [Compound 104] = 50 to 500 nM

# DC50 of CCCS(=O)(=O)Nc1cccc(-c2nc(C(C)(C)C)sc2-c2ccnc(Nc3ccc(C4CCN(C(=O)C5CCN(CC6CCN(c7ccc(C8CCC(=O)NC8=O)cn7)CC6)CC5)CC4)cc3)n2)c1F (racemic) [Compound 175] = 10 to 50 nM

Others:
# DC50 of CCCS(=O)(=O)Nc1cccc(-c2cn(-c3ccc(N4CCN(CC5(C)CCN(c6ccc(C7CCC(=O)NC7=O)cn6)CC5)CC4)cc3)nc2-c2ccncc2)c1F (racemic) [Compound 17] = 50 to 500 nM

# DC50 of CCCS(=O)(=O)Nc1cccc(-c2nc(C3CCN(C(=O)C4CCN(C(=O)C5CCN(c6ccc(C7CCC(=O)NC7=O)cn6)CC5)CC4)CC3)sc2-c2ccncc2)c1F (racemic) [Compound 210] = < 10 nM

# DC50 of CCCS(=O)(=O)Nc1cccc(-c2nc(C(C)(C)C)sc2-c2ccnc(NC3CC4(C3)CN(CC3CCN(C(=O)C5CCN(c6ccc(C7CCC(=O)NC7=O)cc6)CC5)CC3)C4)n2)c1F (racemic) [Compound 140] = 10 to 50 nM

# DC50 of CCCS(=O)(=O)Nc1cccc(-c2nc(C3CCN(CC4CCN(C(=O)CC5CCN(c6ccc(C7CCC(=O)NC7=O)cn6)CC5)CC4)CC3)sc2-c2ccnc(N)n2)c1F (racemic) [Compound 202] = < 10 nM

# DC50 of CCCS(=O)(=O)Nc1cccc(-c2nc(C(C)(C)C)sc2-c2ccnc(Nc3cnn(CC4CCN(CC5CCN(c6ccc(C(=O)NC7CCC(=O)NC7=O)nc6)CC5)CC4)c3)n2)c1F (racemic) [Compound 82] = 10 to 50 nM

* * *

Quick list: DC50 per entry.
# Target entity: BRAF G469A (Homo sapiens, UniProt P15056, G469A)
# Construct: Horizon Discovery (HCT-116 BRAF−/− cells); host or cells: HCT-116 BRAF−/− cells, clone 34, lentiviral transduction
# Sequence (P15056 whole entry G469A): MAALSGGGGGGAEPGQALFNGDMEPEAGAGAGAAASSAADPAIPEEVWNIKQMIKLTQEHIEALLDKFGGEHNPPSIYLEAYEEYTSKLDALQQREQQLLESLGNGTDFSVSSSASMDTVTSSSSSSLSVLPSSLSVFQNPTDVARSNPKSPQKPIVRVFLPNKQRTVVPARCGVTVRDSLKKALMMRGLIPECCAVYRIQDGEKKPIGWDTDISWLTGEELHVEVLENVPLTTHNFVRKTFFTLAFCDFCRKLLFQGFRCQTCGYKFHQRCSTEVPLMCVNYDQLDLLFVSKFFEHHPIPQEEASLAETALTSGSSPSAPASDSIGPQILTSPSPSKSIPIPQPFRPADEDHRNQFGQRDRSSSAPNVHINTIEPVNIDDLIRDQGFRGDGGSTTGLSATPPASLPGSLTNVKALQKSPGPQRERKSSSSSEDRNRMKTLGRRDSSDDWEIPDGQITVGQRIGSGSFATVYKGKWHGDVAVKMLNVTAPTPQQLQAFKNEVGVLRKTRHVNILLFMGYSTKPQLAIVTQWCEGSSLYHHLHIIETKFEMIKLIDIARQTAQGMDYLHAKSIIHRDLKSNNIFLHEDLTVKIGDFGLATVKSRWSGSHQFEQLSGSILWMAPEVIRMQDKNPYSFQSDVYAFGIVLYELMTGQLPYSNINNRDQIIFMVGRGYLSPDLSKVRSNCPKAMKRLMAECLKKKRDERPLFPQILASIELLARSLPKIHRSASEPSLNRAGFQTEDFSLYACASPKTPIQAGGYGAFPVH
# Test method notes: BRAF HiBiT degradation assay, C-terminal HiBiT-tagged BRAF G469A overexpressed in HCT-116 BRAF−/− cells (clone 34), Nano-Glo HiBiT Lytic assay
# Format: cell-based
# Assay context: Class 2; BRAF G469A; DC50 at 50%: fitted conc. at Y=50

Here is how some molecules turned out for DC50.
# DC50 of CCCS(=O)(=O)Nc1cccc(-c2cn(-c3ccc(N4CCN(CC5CCN(c6ccc([C@@H]7CCC(=O)NC7=O)cc6)CC5)CC4)cc3)nc2-c2ccncc2)c1F [Compound 10] = > 500 nM

# DC50 of CCCS(=O)(=O)Nc1cccc(-c2nc(C(C)(C)C)sc2-c2ccnc(Nc3ccc(C4CCN(CC[C@H]5CCN(c6ccc(C7CCC(=O)NC7=O)cn6)C5)CC4)cc3)n2)c1F (mixture of isomers) [Compound 173] = > 500 nM

Others:
# DC50 of CCCS(=O)(=O)Nc1cccc(-c2nc(C3CCN(C(=O)C4(C)CCN(C(=O)C5CCN(c6ccc(C7CCC(=O)NC7=O)cc6)CC5)CC4)CC3)sc2-c2ccnc(NC(C)C)n2)c1F (racemic) [Compound 179] = > 500 nM

* * *

Quick list: DC50 per entry.
# Target entity: BRAF G469A (Homo sapiens, UniProt P15056, G469A)
# Construct: Horizon Discovery (HCT-116 BRAF−/− cells); host or cells: HCT-116 BRAF−/− cells, clone 34, lentiviral transduction
# Test method notes: BRAF HiBiT degradation assay, C-terminal HiBiT-tagged BRAF G469A overexpressed in HCT-116 BRAF−/− cells (clone 34), Nano-Glo HiBiT Lytic assay
# Type: cell-based
# Assay context: Class 2; BRAF G469A; DC50 at 50%: fitted conc. at Y=50

# DC50 of CCN(C)S(=O)(=O)Nc1cccc(-c2nc(C3CCN(C(=O)C4CCN(C(=O)C5CCN(c6ccc(C7CCC(=O)NC7=O)cn6)CC5)CC4)CC3)sc2-c2ccnc(NC(C)C)n2)c1F (racemic) = > 500 nM

Others:
# DC50 of CCCS(=O)(=O)Nc1cccc(-c2nc(C(C)(C)C)sc2-c2ccnc(NC3CC4(C3)CN(C(=O)CN3CCC5(CC3)CN(c3ccc6c(c3)C(=O)N(C3CCC(=O)NC3=O)C6=O)C5)C4)n2)c1F (racemic) = > 500 nM

# DC50 of CCCS(=O)(=O)Nc1cccc(-c2nc(C3CCN(C(=O)C4CCN(C(=O)C5CCN(c6ccc(C7CCC(=O)NC7=O)cn6)CC5)CC4)CC3)sc2-c2ccnc(N[C@H](C)CO)n2)c1F (mixture of isomers) = 10 to 50 nM

# DC50 of CCCS(=O)(=O)Nc1cccc(-c2nc(C)sc2-c2ccnc(Nc3ccc(N4CCN(CC5CCN(c6ccc(C7CCC(=O)NC7=O)cn6)CC5)CC4)cn3)n2)c1F (racemic) = < 10 nM

# DC50 of CCCS(=O)(=O)Nc1cccc(-c2nc(C3CCN(C(=O)C4CCN(C(=O)C5CCN(c6ccc(C7CCC(=O)NC7=O)cn6)CC5)CC4)CC3)sc2-c2ccnc(NC(C)C)n2)c1F (racemic) = > 500 nM

* * *

# Target entity: BRAF G469A (Homo sapiens, UniProt P15056, G469A)
# Construct: Horizon Discovery (HCT-116 BRAF−/− cells); host or cells: HCT-116 BRAF−/− cells, clone 34, lentiviral transduction
# Test method notes: BRAF HiBiT degradation assay, C-terminal HiBiT-tagged BRAF G469A overexpressed in HCT-116 BRAF−/− cells (clone 34), Nano-Glo HiBiT Lytic assay
# Assay type: cell-based
# Assay context: Class 2; BRAF G469A; DC50 at 50%: fitted conc. at Y=50
# Description: An A375 cell line expressing a homozygous V600E mutation was purchased from ATCC (Manassas, VA, USA). […] HiBiT signal was measured by a Nano-Glo HiBiT Lytic assay (Promega cat. no. N3050). […] Luminesce units (LU) were read on an EnVision plate reader 2105 (Perkin Elmer). Percent protein remaining and viability remaining per sample were calculated as follows: […]
Readout: DC50

# DC50 of CCCS(=O)(=O)Nc1cccc(-c2cn(-c3ccc(C4CCN(CC5CCN(c6ccc(C7CCC(=O)NC7=O)cc6F)CC5)CC4)cc3)nc2-c2ccncc2)c1F (racemic) = > 500 nM

# DC50 of CCN(C)S(=O)(=O)Nc1cccc(-c2nc(C(C)(C)C)sc2-c2ccnc(Nc3ccc(N4CCN(CC5CCN(c6ccc([C@@H]7CCC(=O)NC7=O)cc6)CC5)CC4)cn3)n2)c1F = 10 to 50 nM

# DC50 of CCCS(=O)(=O)Nc1cccc(-c2cn(-c3ccc(C4CCN(CC5CCN(c6ccc(C7CCC(=O)NC7=O)c(F)c6)CC5)CC4)cc3)nc2-c2ccncc2)c1F (racemic) = > 500 nM

# DC50 of CCCS(=O)(=O)Nc1cccc(-c2nc(C3CCN(CC4CCN(C(=O)[C@H]5CC[C@H](Oc6ccc(C7CCC(=O)NC7=O)cc6)CC5)CC4)CC3)sc2-c2ccnc(N)n2)c1F (mixture of isomers) = > 500 nM

# DC50 of CCCS(=O)(=O)Nc1cccc(-c2nc(C(C)(C)C)sc2-c2ccnc(Nc3cnn(CC4CCN(C[C@H]5CC[C@H](Oc6ccc(C7CCC(=O)NC7=O)cc6)CC5)CC4)c3)n2)c1F (mixture of isomers) = > 500 nM
